test system: P. aeruginosa PAO1; test: MIC assay in the presence of a bacterial efflux pump inhibitor (EPI); format: cell-based, Pseudomonas aeruginosa; settings: P. aeruginosa PAO1; with 12.5 ug/ml of EPI (2S,4R)-4-(ammoniomethyl)-2-((6-(4-fluorophenyl)-1H-indole-2-carboxamido)methyl)pyrrolidin-1-ium
Answer each item with its documented Antibiotic Activity Against P. aeruginosa MIC with EPI.
One number for each entry, in µg/mL.

Quick one: give me Antibiotic Activity Against P. aeruginosa MIC with EPI for each item below, same order please.
1. NC1CCCc2c1[nH]c1cc(Br)ccc21 (stereo not drawn) [Example 5a]
2. CC(C)C1Cc2c([nH]c3ccc(Cl)c(Cl)c23)C(N)C1 (stereo not drawn) [Example 37]
3. NC1CCCc2c1[nH]c1ccc(OC(F)(F)F)cc21 (stereo not drawn) [Example 15]
4. NC1CC(CO)Cc2c1[nH]c1ccc(Br)cc21 (stereo not drawn) [Example 29]
5. CC(C)C1Cc2c([nH]c3ccc(Br)cc23)C(N)C1 (stereo not drawn) [Example 30]
6. NC1CC(CN2CCOCC2)Cc2c1[nH]c1ccc(Br)cc21 (stereo not drawn) [Example 31]
7. NCCNC1CCCc2c1[nH]c1ccc(Br)cc21 (stereo not drawn) [Example 39]

Ans.
[1, 4, 16, 32, 8, 64, 16]

Qu. Give the value of Antibiotic Activity Against P. aeruginosa MIC with EPI reported for the following: CNC1CCCc2c1[nH]c1ccc(Br)cc21 (stereo not drawn) [Example 7]
Ans. 8

Each recorded value in this set is attributed to patent US11458121B2.
